targetDesc: full-length beta-Catenin (Uniprot ID P35222) (Homo sapiens (Human)) (UniProt P35222)
Sequence (P35222 2-781 limits assumed): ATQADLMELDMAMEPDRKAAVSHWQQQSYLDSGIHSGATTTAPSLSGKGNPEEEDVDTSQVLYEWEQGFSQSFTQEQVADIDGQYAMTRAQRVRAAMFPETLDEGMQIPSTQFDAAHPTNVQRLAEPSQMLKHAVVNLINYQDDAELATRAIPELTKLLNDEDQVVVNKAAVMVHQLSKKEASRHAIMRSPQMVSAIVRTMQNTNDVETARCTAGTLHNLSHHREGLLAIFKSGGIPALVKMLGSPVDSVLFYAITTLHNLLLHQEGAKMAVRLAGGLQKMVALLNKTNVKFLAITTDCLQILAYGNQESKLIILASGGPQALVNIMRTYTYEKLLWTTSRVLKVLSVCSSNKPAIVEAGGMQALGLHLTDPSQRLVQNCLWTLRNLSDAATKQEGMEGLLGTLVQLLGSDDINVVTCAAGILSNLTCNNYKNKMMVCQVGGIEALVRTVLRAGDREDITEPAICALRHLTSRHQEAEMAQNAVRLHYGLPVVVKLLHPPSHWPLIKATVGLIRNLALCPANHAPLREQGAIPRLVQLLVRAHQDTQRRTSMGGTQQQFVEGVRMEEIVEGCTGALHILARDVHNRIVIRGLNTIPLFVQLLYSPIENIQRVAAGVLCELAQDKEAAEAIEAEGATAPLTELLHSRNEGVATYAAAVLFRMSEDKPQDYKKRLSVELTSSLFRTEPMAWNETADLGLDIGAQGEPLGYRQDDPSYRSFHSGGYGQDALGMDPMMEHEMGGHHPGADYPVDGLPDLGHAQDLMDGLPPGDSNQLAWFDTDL
testDetails: fluorescence polarization competition; full-length beta-catenin, 5FAM-TCF4(10-53) probe as competitor
pIC50: −log10 of the molar value. Starred links: 1 amine or outer side, 2 acyl side, 3 side chain; linkers in the order of their positions; H or OH if unused. Positions of bridges follow the written chain, without caps; N, C: chain ends. Non-standard residues stand in square brackets, D forms with d. Primed or numbered codes have the meaning given here. PyrS2″ = (S)-3-amino-1-((pent-4-en-1-yloxy)carbonyl)pyrrolidine-3-carboxylic acid (stapling residue), C=CCCCOC(=O)N1CC[C@@](N[*:1])(C(=O)[*:2])C1; B5(23) = 2-amino-2-(pent-4-en-1-yl)hept-6-enoic acid (2,2-bis(4-pentenyl)glycine), stitching residue, C=CCCCC(CCCC=C)(N[*:1])C(=O)[*:2]; B5(4) = 2,2-bis(4-pentenyl)glycine = 2-amino-2-(pent-4-en-1-yl)hept-6-enoic acid (stitching residue), C=CCCCC(CCCC=C)(N[*:1])C(=O)[*:2]; B5(5) = 2,2-bis(4-pentenyl)glycine, 2-amino-2-(pent-4-en-1-yl)hept-6-enoic acid (stitching residue), C=CCCCC(CCCC=C)(N[*:1])C(=O)[*:2]; TfeGA = (S)-2-amino-3-((carboxymethyl)(2,2,2-trifluoroethyl)amino)propanoic acid, O=C([C@H](CN(CC(=O)[*:3])CC(F)(F)F)N[*:1])[*:2]; PyrS2 = (S)-3-amino-1-((pent-4-en-1-yloxy)carbonyl)pyrrolidine-3-carboxylic acid, C=CCCCOC(=O)N1CC[C@@](N[*:1])(C(=O)[*:2])C1; B5(3) = 2,2-bis(4-pentenyl)glycine (stitching residue), C=CCCCC(CCCC=C)(N[*:1])C(=O)[*:2]; Phe(3-COOH) = N[C@@H](Cc1cccc(C(=O)O)c1)C(=O)O; Phe(2-CF3) = N[C@@H](Cc1ccccc1C(F)(F)F)C(=O)O; Phe(2-Cl) = N[C@@H](Cc1ccccc1Cl)C(=O)O; Bta = N[C@@H](Cc1csc2ccccc12)C(=O)O; αAllylPro = C=CC[C@@]1(C(=O)O)CCCN1; tBuAla = CC(C)(C)C[C@H](N)C(=O)O; 3Thi = N[C@@H](Cc1ccsc1)C(=O)O; Thr(ol) = C[C@@H](O)[C@H](N)CO; Leu(ol) = CC(C)C[C@H](N)CO; hSer = N[C@@H](CCO)C(=O)O; 2F3MeF(3) = Phe analogue; Abu = CC[C@H](N)C(=O)O; Aib = CC(C)(N)C(=O)O
metric: pIC50

binder	pIC50
Ac-[αAllylPro]DA[B5(23)]NNAAFN[PyrS2][3Thi][Bta]Q-NH2 (staple 1-4, 4-11) [I-1556]	6.41
Ac-[αAllylPro]D[tBuAla][B5(5)]D[Phe(3-COOH)]AAFL[PyrS2″][Phe(2-CF3)][Bta][Me2Gln]A-NH2 (staple 1-4, 4-11) [Ac-PL3-Asp-Npg-B5-Asp-3COOHF-Ala-Ala-Phe-Leu-PyrS2-2F3MeF-BztA-Me2Gln-Ala-NH2]	7.82
Ac-[αAllylPro]D[tBuAla][B5(3)]D[Phe(3-COOH)][Aib]AF[Abu][PyrS2″][Phe(2-CF3)][Bta][Me2Gln]A-NH2 (staple 1-4, 4-11) [Ac-PL3-Asp-Npg-B5-Asp-3COOHF-Aib-Ala-Phe-Abu-PyrS2-2F3MeF-BztA-Me2Gln-Ala-NH2]	7.42
Ac-[αAllylPro]D[tBuAla][B5(4)]D[TfeGA]AAFT[PyrS2″][Phe(2-Cl)][Bta][Leu(ol)] (staple 1-4, 4-11) [I-1243]	7.09
Ac-[αAllylPro]D[tBuAla][B5(3)]D[Phe(3-COOH)]QAFL[PyrS2″][Phe(2-CF3)][2F3MeW]A-NH2 (staple 1-4, 4-11) [Ac-PL3-Asp-Npg-B5-Asp-3COOHF-Gln-Ala-Phe-Leu-PyrS2-2F3MeF-2F3MeW-Ala-NH2]	5.32

A: Ac-[αAllylPro]D[tBuAla][B5(4)]NYAAFN[PyrS2][3Thi][Bta]Q-NH2 (staple 1-4, 4-11; also: staple isomer of later-eluting HPLC peak) [I-1569]
B: Ac-[αAllylPro]D[tBuAla][B5(4)]LNAAFN[PyrS2][3Thi][Bta]Q-NH2 (staple 1-4, 4-11; also: staple isomer of earlier-eluting HPLC peak) [I-1562]
C: Ac-[αAllylPro]D[tBuAla][B5(4)]QQAAFN[PyrS2][3Thi][Bta]Q-NH2 (staple 1-4, 4-11) [I-1558]
Hey, quick one: sort these by pIC50, low to high? Give your ranking as a list of the labels in the requested order. B, A, C
(B: 5.30, A: 5.57, C: 6.17)

A: Ac-[αAllylPro]D[tBuAla][B5(4)]SNAAFN[PyrS2][3Thi][Bta]Q-NH2 (staple 1-4, 4-11) [I-1561]
B: Ac-[αAllylPro]L[tBuAla][B5(5)]DDAAFN[PyrS2″][3Thi][Bta]Q-NH2 (staple 1-4, 4-11) [I-1226]
Would you mind telling me which has the lower recorded pIC50 between A and B ? Answer format: the label of the selected item. A

1: Ac-[αAllylPro]D[tBuAla][B5(5)]D[Phe(3-COOH)][Aib]AF[Abu][PyrS2″][3Thi][Bta][(NHEt)GlnR]A-NH2 (staple 1-4, 4-11) [Ac-PL3-Asp-Npg-B5-Asp-3COOHF-Aib-Ala-Phe-Abu-PyrS2-3Thi-BztA-[NHEt]GlnR-Ala-NH2]
2: Ac-[αAllylPro]D[tBuAla][B5(3)]NT[Aib]AFN[PyrS2″][3Thi][Bta]K-NH2 (staple 1-4, 4-11) [Ac-PL3-Asp-Npg-B5-Asn-Thr-Aib-Ala-Phe-Asn-PyrS2-3Thi-BztA-Lys-NH2]
Problem: Given the entries 1 and 2 , determine which has the lower reported pIC50. Indicate your choice by writing its label. 2

P: Ac-[αAllylPro]D[tBuAla][B5(4)]D[TfeGA]AAFT[PyrS2″][Phe(2-Cl)][Bta][Thr(ol)] (staple 1-4, 4-11) [I-1241]
Q: Ac-[αAllylPro]D[tBuAla][B5(3)]D[Phe(3-COOH)]QAFL[PyrS2″][2F3MeF(3)][SbMe2NapA]A-NH2 (staple 1-4, 4-11) [Ac-PL3-Asp-Npg-B5-Asp-3COOHF-Gln-Ala-Phe-Leu-PyrS2-2F3MeF-SbMe2NapA-Ala-NH2]
R: Ac-[αAllylPro][hSer][tBuAla][B5(5)]DDAAFN[PyrS2″][3Thi][Bta]Q-NH2 (staple 1-4, 4-11) [I-1228]
Sort the 3 binders by pIC50; largest first, smallest last. // ordering of labels required in reply P, R, Q
(P: 7.72, R: 7.00, Q: 6.79)
